Parameter: GI50. Scope: all listed entries.
# assay-name: Cytotoxicity against BALB mouse 3T3 cells
# Type: cell-based
# run-conditions: BALB 3T3 cells
The answer is to be given in µM; state only the numeric part.

Here's what some known entries look like.
mol	GI50 / µM
C(=N\Nc1ncnc2sc3c(c12)CCCC3)/c1cccc2ccccc12	16.7
C(=N\Nc1ncnc2sc3c(c12)CCCC3)/c1ccc2ccccc2c1	27.9
C(=N\Nc1ncnc2sc3c(c12)CCCC3)/c1ccccc1	21.7
C(=C\c1ccccc1)/C=N/Nc1ncnc2sc3c(c12)CCCC3	4.4
COc1ccc(/C=N/Nc2ncnc3sc4c(c23)CCCC4)cc1	14.9

Ask | Request the reported GI50 associated with `C(=N\Nc1ncnc2sc3c(c12)CCCC3)/c1ccncc1`
Reply | 83.2

Ask | What about this molecule? `N#Cc1ccc(/C=N/Nc2ncnc3sc4c(c23)CCCC4)cc1`
Reply | 150

Ask | Another molecule to look at: `Clc1ccccc1/C=N/Nc1ncnc2sc3c(c12)CCCC3`
Reply | 88.1

====

# System: M14
# assay-name: Cytotoxicity against human M14 cells
# Type: functional
recorded-endpoint: log10(GI50) (log10 of the value in µM)
A value of 2 here means GI50 of 100 in µM, since values are log10.

Examples with their reported log10(GI50) follow.
mol	measured
CC(C)c1ccc(/C=N/Nc2ncnc3sc4c(c23)CCCC4)cc1	1.25
COc1cc(/C=N/Nc2ncnc3sc4c(c23)CCCC4)cc(OC)c1OC	1.19
C(=N\Nc1ncnc2sc3c(c12)CCCC3)/c1cccc2ccccc12	1.26
C(=C\c1ccccc1)/C=N/Nc1ncnc2sc3c(c12)CCCC3	0.66
CCC(CC)=NNc1ncnc2sc3c(c12)CCCC3	1.31

Ask | GET /values?readout=log10(GI50)&item= `COc1ccc(/C=N/Nc2ncnc3sc4c(c23)CCCC4)c(OC)c1`
Reply | 1.97

Ask | Try this compound too: `Brc1ccccc1/C=N/Nc1ncnc2sc3c(c12)CCCC3`
Reply | 1.19

Ask | Also, `C(=N\Nc1ncnc2sc3c(c12)CCCC3)/c1ccc[nH]1` please.
Reply | 0.40

Ask | Subsequent entry: `Oc1ccc(/C=N/Nc2ncnc3sc4c(c23)CCCC4)cc1`
Reply | 1.24

====

# assay-name: Selectivity index, ratio of IC50 for african green monkey Vero cells to MIC for Mycobacterium tuberculosis H37Rv ATCC 27294 by low oxygen recovery assay
# Assay type: functional
recorded-endpoint: Ratio IC50
Simply state the number, no unit and no words.

Examples with their reported Ratio IC50 follow.
mol	recorded-endpoint	measured
FC(F)(F)c1ccc(/C=N/Nc2ncnc3sc4c(c23)CCCC4)cc1	Ratio IC50	5.6
C(=N\Nc1ncnc2sc3c(c12)CCCC3)/c1ccco1	Ratio IC50	4.2
C/C(=N/Nc1ncnc2sc3c(c12)CCCC3)c1ccccc1	Ratio IC50	11.5

Kindly review the next molecule as well.
Ask | Fill blank: measured Ratio IC50 of the molecule `COc1ccc(/C=N/Nc2ncnc3sc4c(c23)CCCC4)cc1` is ____.
Reply | 8.4

====

# System: M14
# assay-name: Cytotoxicity against human M14 cells
# Format: functional
recorded-endpoint: GI50 (µM)
Please give a number only; it is taken to be in µM.

mol	recorded-endpoint	measured
C(=N\Nc1ncnc2sc3c(c12)CCCC3)/c1ccccc1	GI50	18

Okay, next one:
Ask | Value lookup for GI50; key = `CCc1ccc(/C=N/Nc2ncnc3sc4c(c23)CCCC4)cc1`
Reply | 190
